FYI, the data here is from PubChem BioAssay (EPA / NIEHS).

read-out: Tumor necrosis factor (Homo sapiens) (UniProt P01375); test: BSK_LPS_TNFa: BioMAP Diversity Plus: LPS Assay for Tumour Necrosis Factor alpha (TNFa) Biomarker Activity (AID 2283085); settings: primary human HUVEC with PBMC; actives raise or lower the signal
Sequence (P01375 whole entry, looked up): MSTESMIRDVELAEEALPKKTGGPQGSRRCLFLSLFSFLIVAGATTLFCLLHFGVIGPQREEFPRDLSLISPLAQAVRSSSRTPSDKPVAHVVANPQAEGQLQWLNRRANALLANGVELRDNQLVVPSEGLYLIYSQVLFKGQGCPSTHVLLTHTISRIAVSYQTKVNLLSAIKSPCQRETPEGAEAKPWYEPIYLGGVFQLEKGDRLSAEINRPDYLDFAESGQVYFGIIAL
The source made the active and inactive calls. The calls were made as follows: active = hit-call score of the fitted dose curve at least 0.9, where 1 is the maximum; inactive = score below 0.9.
The categories you may choose from are yes (1) = active, no (0) = inactive

Solved entries:
CCOc1cc(C(C)(C)C)ccc1C1COC(c2c(F)cccc2F)=N1 (configuration not stated) = yes (1)
CC(C)Oc1cccc(NC(=O)c2ccccc2C(F)(F)F)c1 = no (0)
COc1cc(OC)nc(NC(=O)NS(=O)(=O)c2ncccc2OCC(F)(F)F)n1 = no (0)
CCOc1nc(C(Cl)(Cl)Cl)ns1 = no (0)
CC(C)Nc1nc(Cl)nc(NC(C)C)n1 = yes (1)
CC1(C)C(C(=O)OC(C#N)c2cccc(Oc3ccccc3)c2)C1(C)C (configuration not stated) = yes (1)
COC(=O)c1c(C(F)F)nc(C(F)(F)F)c(C2=NCCS2)c1CC(C)C = yes (1)
COc1ccc(-c2ccccc2)cc1NNC(=O)OC(C)C = yes (1)

Short answer needed: outcome of this test for CCNP(=S)(OC)O/C(C)=C/C(=O)OC(C)C (configuration not stated) ? no (0)

Which result was noted for this compound in the test: C=CCOC(=O)C(C)(C)OC(=O)c1cc(-n2c(=O)cc(C(F)(F)F)n(C)c2=O)ccc1Cl no (0)

Per the records of this test, what outcome belongs to COC(=O)NS(=O)(=O)c1ccc(N)cc1 ? no (0)
